- Test system: ZIKV
- assay-details: Plaque reduction assay in BHK21 cells
- Type: cell-based, Zika virus
- assay-setup: n=3
Where no end group is shown, it is not given here.

# item-sequence, unit-annotation, IC50
records = [
    ("MAVLGDTAWDFGSVGGALNSLGKGIHQIFGAAF [Z2]", "µM", 2.61),
]
